- System: A549
- assayProtocol: NCI tumour cell line growth inhibition, 48 h
Calls of active or inactive are those of the source. Rule as the data show it: active = GI50 up to about 1.1 µM and inactive = higher.
Possible outcomes: YES for active, NO for inactive

- Nc1c(-c2ccc(Br)cc2)[n+]([O-])c2ccccc2[n+]1[O-]: NO
- C=C1C(=O)O[C@@H]2[C@@H]3O[C@@H](C[C@@H]13)[C@](C)(O)CC/C=C(\C)CCC[C@@H]2C: NO
- Nc1ccccc1.O=P(O)(OP(=O)(O)c1ccccc1)c1ccccc1: NO
- COc1ccc(C=O)cc1OS(=O)(=O)C(F)(F)C(F)(F)C(F)(F)C(F)(F)F: NO
- Nc1cc(C(=O)NC2C3CC4CC(C3)CC2C4)nc(S)n1 (stereo not drawn): NO
- CCOC(=O)C1Cc2ccc(C)cc2C1=O (stereo not drawn): NO
- CCCCCCCCCCCCCCCCOCC(Cl)COP(=O)(O)OP(=O)(O)OCC1OC(n2cc(C)c(=O)[nH]c2=O)CC1O (stereo not drawn): NO
- CC1CN1c1c(C(=O)/C=C/c2ccc(F)cc2)c(-c2ccccc2)nn(C)c1=O (stereo not drawn): NO
- COC(=O)C1Cc2c([nH]c3ccccc23)C(c2ccccc2O)N1 (stereo not drawn): NO
- N#CC[N+]1(Cc2ccccn2)CCCC1.O=S(=O)([O-])c1ccccc1: NO
- Nc1cccc(/C=C/CN2CCN(CCOC(c3ccccc3)c3ccccc3)CC2)c1: NO
- CSc1ccc2c(cc1=O)[C@@H](NC(=O)c1ccc([N+](=O)[O-])cc1)CCc1cc(O)c(O)c(O)c1-2: NO
- Cc1sc(C)c2c1C(=O)CC2N (stereo not drawn): NO
- COC(=O)c1c2c(cc3c1CC1(Cc4cc5c(cc4C1)CCCC5)C3)CCCC2: NO
- Cc1cc(-c2cccc3ccccc23)c(C#N)c(=S)n1C1OC(CO)C(O)C(O)C1O (stereo not drawn): NO
- CCCCCCC(=O)CC(=O)C(=O)Nc1ccccc1C: NO
- CCC(=C(C#N)C#N)c1cc(OC)c(OC)c(OC)c1: NO
- O=c1c2ncn(C3CCCCO3)c2n(-c2ccccc2)c(=S)n1-c1ccccc1 (stereo not drawn): NO
- O=C(c1ccccc1)c1nnn(Cc2ccccc2Cn2nnc(C(=O)c3ccccc3)c2C(=O)c2ccccc2)c1C(=O)c1ccccc1: NO
- CCCCCCCCCCCCCC(=O)O[C@H]1CC[C@H](NC(=O)[C@H](OC)[C@H](O)[C@@H](O)[C@H](O)/C=C/C(C)C)C(=O)NC1 [BENGAMIDE A]: YES
- O=[N+]([O-])c1ccc2nc(-c3ccccn3)c(-c3ccccn3)nc2c1: NO
- COC(=O)C1CCC(=O)N1CN(C(C)=O)c1ccccc1 (stereo not drawn): NO
- CC(=O)N1C(C(=O)NNc2ccccc2)CSC1c1ccccc1 (stereo not drawn): NO
